Hello, the source for this data is patent US12653809B2, in case you need it.

Target: Cbl-b (truncated variant, UniProt number Q13191) (Homo sapiens, UniProt Q13191)
Construct: made in house
Sequence (Q13191 36-427): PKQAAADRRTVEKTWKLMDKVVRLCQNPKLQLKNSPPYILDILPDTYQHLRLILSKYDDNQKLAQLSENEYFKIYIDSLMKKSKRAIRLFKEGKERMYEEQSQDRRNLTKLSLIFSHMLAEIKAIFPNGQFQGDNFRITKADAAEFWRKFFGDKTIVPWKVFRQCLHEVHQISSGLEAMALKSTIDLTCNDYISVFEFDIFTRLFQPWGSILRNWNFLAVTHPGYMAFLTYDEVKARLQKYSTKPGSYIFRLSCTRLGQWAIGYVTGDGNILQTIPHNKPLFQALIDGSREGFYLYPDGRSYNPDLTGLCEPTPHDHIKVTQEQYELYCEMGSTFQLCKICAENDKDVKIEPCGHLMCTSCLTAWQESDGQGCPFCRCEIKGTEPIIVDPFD
Experiment: Cbl-b activity assay (TR-FRET, interaction of Cbl-b with UbcH5B-Ub)
Format: biochemical
Settings: high conditions: 100 mM NaCl, 60 nM Src kinase; 12 nM Cbl-b; read-out: Cbl-b activity IC50
This section presents compounds with their documented IC50 values.

As a guide, the following entries are already answered.
COMPOUND	IC50
CC(CO)N(C)C(=O)Nc1cccc([C@H](C)Sc2nncn2C)c1 (stereo partly drawn) [Example 143]	≥ 5 µM
C[C@H](Sc1nncn1C)c1cccc(-c2cc(-c3ccc(C(=O)O)cc3)no2)c1 [Example 63]	≥ 5 µM
C[C@H](Sc1nncn1C)c1cccc(-c2n[nH]c3ccccc23)c1 [Example 107]	0.1 to 1 µM
C[C@H](Sc1nncn1C)c1cccc(-n2cc(-c3ccc(CO)cc3)nn2)c1 [Example 85]	≥ 5 µM
C[C@@H](Sc1nncn1C)c1cccc(-c2n[nH]c3ccccc23)c1 [Example 108]	1 to 5 µM
C[C@H](Sc1nncn1C)c1cccc(-n2cc(-c3ccc(C(=O)O)cc3)nn2)c1 [Example 81]	≥ 5 µM
C[C@H](Sc1nncn1C)c1cccc(NC(=O)N2CCOCC2)c1 [Example 128]	≥ 5 µM
C[C@H](Cc1nncn1C)c1cccc(NC(=O)N2CC(C)(C)c3cccnc32)c1 [Example 22]	0.1 to 1 µM

Okay, next one:
Which IC50 is listed for C[C@H](Cc1nncn1C)c1cccc(C(=O)Nc2cccc(C(F)(F)F)n2)c1 [Example 18] ?
≥ 5 µM

---

Target: Cbl-b (truncated variant, UniProt number Q13191) (Homo sapiens, UniProt Q13191)
Construct: made in house
Test: Cbl-b activity assay (TR-FRET, interaction of Cbl-b with UbcH5B-Ub)
Format: biochemical
Conditions: high conditions: 100 mM NaCl, 60 nM Src kinase; 12 nM Cbl-b; read-out: Cbl-b activity IC50
pIC50: −log10 of the molar value.
MEASURED ATTRIBUTE: pIC50

As a guide, the following entries are already answered.
COMPOUND	pIC50
C[C@H](Sc1nncn1C)c1cccc(NC(=O)N2CCC(c3ccccc3)C2)c1 (some centres unmarked)	≤ 5.30
C[C@H](Sc1nncn1C)c1cccc(-n2ncc(-c3cccc(C#N)c3)n2)c1	5.30 to 6.00
C[C@H](Sc1nncn1C)c1cccc(-n2cc(-c3cccc(C(=O)O)c3)nn2)c1	≤ 5.30
C[C@H](Sc1nncn1C)c1cccc(NC(=O)N2CCCc3ccccc32)c1	≤ 5.30
C[C@H](Sc1nncn1C)c1cccc(NC(=O)N2Cc3cnn(C)c3C2)c1	5.30 to 6.00
C[C@H](Sc1nncn1C)c1cccc(-c2cc(-c3ccc(S(C)(=O)=O)cc3)no2)c1	≤ 5.30

Which pIC50 is listed for `C[C@H](Sc1nncn1C)c1cccc(NC(=O)N2CCCCC2)c1` ?
≤ 5.30

Which pIC50 is listed for `Cc1cnnc(NC(=O)Nc2cccc([C@H](C)Sc3nncn3C)c2)c1` ?
5.30 to 6.00

Which pIC50 is listed for C[C@H](Sc1nncn1C)c1cccc(NC(=O)N2CCC2c2ccccc2)c1 (some centres unmarked) ?
≤ 5.30

Which pIC50 is listed for `C[C@H](Sc1nncn1C)c1cccc(NC(=O)N2CCC23CCN(C)CC3)c1` ?
≤ 5.30

Which pIC50 is listed for `C[C@H](Sc1nncn1C)c1cccc(NC(=O)Nc2ccc(N3CCOCC3=O)cc2)c1` ?
≤ 5.30
